- System: Phenylquinone writhing syndrome
- ASSAY PROTOCOL: Analgesic action: Phenylquinone writhing syndrome (P.Q. Method)
- Type: in vivo, mice (Slc:ICR, male)
- CONDITION SUMMARY: mouse, oral, 50 mg/kg, 30 minutes before phenylquinone
Answer NOT MET if P.Q. Method (inhibitory effect on writhing and stretching) is under 60, and MET if it is 60 or more.

In: Determine whether measured P.Q. Method (inhibitory effect on writhing and stretching) meets or exceeds 60 for `COc1ccc(-c2nc(N)sc2-c2cccnc2)cc1`
Out: NOT MET

In: Determine whether measured P.Q. Method (inhibitory effect on writhing and stretching) meets or exceeds 60 for `COc1ccc(-c2nc(N)sc2-c2ccncc2)cc1`
Out: MET

In: Determine whether measured P.Q. Method (inhibitory effect on writhing and stretching) meets or exceeds 60 for `Nc1nc(-c2ccc(O)cc2)c(-c2cccnc2)s1`
Out: NOT MET

In: Determine whether measured P.Q. Method (inhibitory effect on writhing and stretching) meets or exceeds 60 for `COc1ccc(-c2nc(-c3ccccc3)sc2-c2cccnc2)cc1`
Out: MET

In: Determine whether measured P.Q. Method (inhibitory effect on writhing and stretching) meets or exceeds 60 for `Nc1nc(-c2ccccc2)c(-c2ccccn2)s1`
Out: MET

In: Determine whether measured P.Q. Method (inhibitory effect on writhing and stretching) meets or exceeds 60 for `Nc1nc(-c2ccccc2)c(-c2cccnc2)s1`
Out: MET

---

- System: mice
- ASSAY PROTOCOL: Acute toxicity Test in mice
- Assay type: in vivo, mice (ICR, male)
- CONDITION SUMMARY: mouse, oral, 500 mg/kg, one week, groups of five
- Protocol: D. Acute toxicity Test in mice Five-weeks old ICR-male mice were used in groups of five animals. Each animal was orally administered with 500 mg/kg of each test compound. Then, during the subsequent one week, the number of dead animals was counted.
ENDPOINT: Acute Toxicity (number of dead animals / animals)

In: Given the molecule `Nc1nc(-c2ccccc2)c(-c2cccnc2)s1` , what is its reported Acute Toxicity (number of dead animals / animals)?
Out: 0/5

In: Given the molecule `COc1ccc(-c2nc(-c3ccccc3)sc2-c2cccnc2)cc1` , what is its reported Acute Toxicity (number of dead animals / animals)?
Out: 0/5

In: Given the molecule `COc1ccc(-c2nc(N)sc2-c2ccncc2)cc1` , what is its reported Acute Toxicity (number of dead animals / animals)?
Out: 0/5

In: Given the molecule `Nc1nc(-c2ccc(O)cc2)c(-c2cccnc2)s1` , what is its reported Acute Toxicity (number of dead animals / animals)?
Out: 0/5

In: Given the molecule `COc1ccc(-c2nc(N)sc2-c2cccnc2)cc1` , what is its reported Acute Toxicity (number of dead animals / animals)?
Out: 0/5

In: Given the molecule `Nc1nc(-c2ccccc2)c(-c2ccccn2)s1` , what is its reported Acute Toxicity (number of dead animals / animals)?
Out: 0/5

In: Given the molecule `CNc1nc(-c2ccc(OC)cc2)c(-c2cccnc2)s1` , what is its reported Acute Toxicity (number of dead animals / animals)?
Out: 0/5

---

Kindly supply the reported C.E. Method (inhibitory effect on the carrageenin edema) values for the records listed here.
- System: Carrageenin edema (right-hind paw)
- ASSAY PROTOCOL: Anti-inflammatory activity; Carrageenin edema (C.E. Method)
- Type: in vivo, rats (Jcl: SD, male)
- CONDITION SUMMARY: rat, oral, 1 h before carrageenin; edema measured 3 hr later; dose not given
Give the figure by itself; no unit, no explanation.

In: Given the molecule `Nc1nc(-c2ccc(O)cc2)c(-c2cccnc2)s1` , what is its reported C.E. Method (inhibitory effect on the carrageenin edema)?
Out: 16.9

In: Given the molecule `COc1ccc(-c2nc(N)sc2-c2ccncc2)cc1` , what is its reported C.E. Method (inhibitory effect on the carrageenin edema)?
Out: 48.2

In: Given the molecule `COc1ccc(-c2nc(-c3ccccc3)sc2-c2cccnc2)cc1` , what is its reported C.E. Method (inhibitory effect on the carrageenin edema)?
Out: 15.7

In: Given the molecule `Nc1nc(-c2ccccc2)c(-c2ccccn2)s1` , what is its reported C.E. Method (inhibitory effect on the carrageenin edema)?
Out: 7.0

In: Given the molecule `CNc1nc(-c2ccc(OC)cc2)c(-c2cccnc2)s1` , what is its reported C.E. Method (inhibitory effect on the carrageenin edema)?
Out: 60

In: Given the molecule `Nc1nc(-c2ccccc2)c(-c2cccnc2)s1` , what is its reported C.E. Method (inhibitory effect on the carrageenin edema)?
Out: 63.7

In: Given the molecule `COc1ccc(-c2nc(N)sc2-c2cccnc2)cc1` , what is its reported C.E. Method (inhibitory effect on the carrageenin edema)?
Out: 77.1
